# Tested on: OCI-AML2
# method: cell viability relative to vehicle control; higher = less cytotoxic;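 further: after 48 h exposure read by CellTiter-Glo luminescence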
# particulars: 10 µM; SRSF2 genotype: P95H/wt
Where a name gives a salt, the structure may show the parent alone.
Flag rule - cell viability less than 90% flags 1; the remaining entries get -1.

q: Does the reported cell viability of C[C@H]1CN(C[C@H](Cc2ccccc2)C(=O)NCC(=O)O)CC[C@@]1(C)c1cccc(O)c1 [Alvimopan dihydrate] stay below 90%?
a: -1

q: Does the reported cell viability of O=c1ccc2ccc(OCCCCN3CCN(c4cccc5sccc45)CC3)cc2[nH]1 [Brexpiprazole] stay below 90%?
a: 1

q: Does the reported cell viability of CC1(C)CCC[C@](C)([C@H]2CC[C@]3(C)[C@@H]2[C@H](O)C[C@@H]2[C@@]4(C)CC[C@H](O)C(C)(C)[C@@H]4[C@@H](O)C[C@]23C)O1 [Panaxatriol] stay below 90%?
a: -1

q: Does the reported cell viability of O=S(=O)(O)NC1CCCCC1 [Cyclamic acid] stay below 90%?
a: -1

q: Does the reported cell viability of CC(C)(C#N)c1cc(Cn2cncn2)cc(C(C)(C)C#N)c1 [Anastrozole] stay below 90%?
a: -1

q: Does the reported cell viability of `C[C@@H]1CN(CC(=O)Nc2ccc3c(c2)Cc2cccc(-c4cc(=O)cc(N5CCOCC5)o4)c2S3)C[C@H](C)O1` stay below 90%?
a: 1

q: Does the reported cell viability of `O=C(O)c1ccc(Nc2ncc3c(n2)-c2ccc(Cl)cc2C(c2c(F)cccc2F)=NC3)cc1` stay below 90%?
a: 1

q: Does the reported cell viability of CC1=C(/C=C/C(C)=C/C=C/C(C)=C/C=C/C=C(C)/C=C/C=C(C)/C=C/C2=C(C)CCCC2(C)C)C(C)(C)CCC1 [Beta Carotene] stay below 90%?
a: -1

q: Does the reported cell viability of COc1cc2c(cc1OC)[C@H]1C[C@@H](OC(=O)[C@@H](N)C(C)C)[C@H](CC(C)C)CN1CC2 [Valbenazine tosylate] stay below 90%?
a: -1

q: Does the reported cell viability of O=Cc1ccc(O[C@@H]2O[C@H](CO)[C@@H](O)[C@@H](O)[C@H]2O)cc1 [Helicide] stay below 90%?
a: -1

---

# Tested on: MOLM14
# method: cell viability relative to vehicle control; higher = less cytotoxic
# particulars: 10 µM; SRSF2 genotype: SRSF2 P95H/wt
Counter-ions that a name gives are not always drawn.
Kindly supply the reported cell viability values for the records listed here.
The response must be a number in % with no trailing unit.

q: Bench note: what cell viability did C[C@H]1C[C@H]2[C@@H]3C[C@H](F)C4=CC(=O)C=C[C@]4(C)[C@@]3(F)[C@@H](O)C[C@]2(C)[C@@]1(O)C(=O)CO [Diflorasone] show?
a: 92.1

q: Bench note: what cell viability did O=c1c2cc(O[C@@H]3O[C@H](CO)[C@@H](O)[C@H](O)[C@H]3O)c(O)cc2oc2cc(O)c([C@@H]3O[C@H](CO)[C@@H](O)[C@H](O)[C@H]3O)c(O)c12 [Neomangiferin] show?
a: 99.4

q: Bench note: what cell viability did CCCCCCCCc1ccc(CCC(N)(CO)CO)cc1 [Fingolimod (FTY720) HCl] show?
a: 0.4

q: Bench note: what cell viability did O=C(O)c1c[nH]c2ccccc12 [Indole-3-carboxylic acid] show?
a: 94.3

q: Bench note: what cell viability did `CN(C)c1ccc(-c2nc3ncc(Cl)c(N4CCN(CC(=O)Nc5nccs5)CC4)c3[nH]2)cc1` show?
a: 78.9

q: Bench note: what cell viability did `Cc1c(Cn2c(C)nc3c(C(=O)O)cc(N4CCOCC4)cc32)cccc1C(F)(F)F` show?
a: 83.2

q: Bench note: what cell viability did CN(CCOc1ccc(NS(C)(=O)=O)cc1)CCc1ccc(NS(C)(=O)=O)cc1 [Dofetilide (Tikosyn)] show?
a: 95.8

q: Bench note: what cell viability did CCS(=O)(=O)Nc1ccc2[nH]c(O)c(C(=Nc3ccc(CN4CCCCC4)cc3)c3ccccc3)c2c1 [Hesperadin] show?
a: 0.94

q: Bench note: what cell viability did C[C@H](CCC(=O)O)[C@H]1CC[C@H]2[C@@H]3[C@@H](O)C[C@@H]4C[C@H](O)CC[C@]4(C)[C@H]3CC[C@]12C [Ursodiol (Actigal Urso)] show?
a: 99.4

q: Bench note: what cell viability did `CC[C@@H]1C(=O)N(C)c2cnc(Nc3ccc(C(=O)NC4CCN(C)CC4)cc3OC)nc2N1C1CCCC1` show?
a: 0.17

q: Bench note: what cell viability did CC(C)(C)C(=O)Oc1ccc(S(=O)(=O)Nc2ccccc2C(=O)NCC(=O)O)cc1 [Sivelestat sodium tetrahydrate] show?
a: 106

q: Bench note: what cell viability did CCOc1cc2ncc(C#N)c(Nc3ccc(OCc4ccccn4)c(Cl)c3)c2cc1NC(=O)/C=C/CN(C)C [Neratinib (HKI-272)] show?
a: 54.1

q: Bench note: what cell viability did COc1ccc(C2CC(=O)c3c(O)cc(OC4OC(COC5OC(C)C(O)C(O)C5O)C(O)C(O)C4O)cc3O2)cc1 (stereo not drawn) [Didymin] show?
a: 106

q: Bench note: what cell viability did `O=S(=O)(c1ccccc1)c1cnc2c(N3CCNCC3)cccc2c1` show?
a: 98.7

q: Bench note: what cell viability did CCn1cc(C(=O)O)c(=O)c2cc(F)c(N3CCNCC3)cc21 [Norfloxacin (Norxacin)] show?
a: 90.5

q: Bench note: what cell viability did C=C(C)C1CC=C(C)CC1 (single isomer, unassigned; (+)) [(+)-Dipentene] show?
a: 110

q: Bench note: what cell viability did `O=C(NCCCNc1nc(Nc2cccc(CN3CCOCC3)c2)ncc1C1CC1)C1CCC1` show?
a: 8.31

q: Bench note: what cell viability did N#C/C(=C1/SC[C@@H](c2ccc(Cl)cc2Cl)S1)n1ccnc1 [Luliconazole] show?
a: 88.7
